Tgt: Proto-oncogene tyrosine-protein kinase receptor Ret (Homo sapiens)
Run description: Inhibition of recombinant RET
Endpoint name: IC50

compound CCN1CCN(c2ccc(Nc3cc(N(C)C(=O)Nc4c(Cl)c(OC)cc(OC)c4Cl)ncn3)cc2)CC1.O=P(O)(O)O [INFIGRATINIB PHOSPHATE] , IC50 observed: > 10 µM

----------
Assign IC50 to each entry below.
Tgt: Cytochrome P450 3A4 (Homo sapiens, UniProt P08684)
Sequence (P08684 whole entry): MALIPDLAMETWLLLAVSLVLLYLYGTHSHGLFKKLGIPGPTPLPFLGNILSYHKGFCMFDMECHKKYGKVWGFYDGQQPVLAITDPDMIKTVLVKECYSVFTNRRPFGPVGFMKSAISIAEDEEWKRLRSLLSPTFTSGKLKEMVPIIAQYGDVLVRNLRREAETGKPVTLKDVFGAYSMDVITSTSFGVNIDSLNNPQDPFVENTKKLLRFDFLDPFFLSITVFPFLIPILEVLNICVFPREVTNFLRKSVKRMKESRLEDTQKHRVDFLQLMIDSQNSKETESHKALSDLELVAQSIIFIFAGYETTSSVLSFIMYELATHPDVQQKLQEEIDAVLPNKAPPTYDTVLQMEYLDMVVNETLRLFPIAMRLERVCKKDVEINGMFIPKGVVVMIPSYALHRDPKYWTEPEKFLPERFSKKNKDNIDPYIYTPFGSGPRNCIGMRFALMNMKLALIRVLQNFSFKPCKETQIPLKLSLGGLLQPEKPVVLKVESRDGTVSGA
Run description: Inhibition of CYP3A4 using BFC as substrate
Express the result in nM but write the number alone.

Reported IC50 ( "COc1cc(OC)c(Cl)c(NC(=O)N(C)c2cc(Nc3cccc(CN4CCN(C)CC4)c3)ncn2)c1Cl" ) = 500

The recorded IC50 for "CCN1CCC(c2ccc(Nc3cc(N(C)C(=O)Nc4c(Cl)c(OC)cc(OC)c4Cl)ncn3)cc2)CC1" is 1200

Noted for "COc1cc(OC)c(Cl)c(NC(=O)N(C)c2cc(Nc3ccc(CCCN(C)C)cc3)ncn2)c1Cl" : its IC50 reads 1000

Form: compound = "COc1cc(OC)c(Cl)c(NC(=O)N(C)c2cc(Nc3cccc(N4CCN(C)CC4)c3)ncn2)c1Cl" ; IC50 = 1100

----------
Run description: Apparent terminal half life in Wistar rat at 5 mg/kg, iv by LC-MS/MS analysis
Type: ADME, organism-based
Parameters: dose 5 mg/kg, route intravenous
Stated conditions: in vivo, read-out: t1/2 lambda z (converted)
Endpoint name: half-life

Reported half-life of CCN1CCN(c2ccc(Nc3cc(N(C)C(=O)Nc4c(Cl)c(OC)cc(OC)c4Cl)ncn3)cc2)CC1.O=P(O)(O)O [INFIGRATINIB PHOSPHATE] : 4.5 h

----------
Tgt: Mitogen-activated protein kinase 12 (Homo sapiens)
Sequence (P53778 whole entry): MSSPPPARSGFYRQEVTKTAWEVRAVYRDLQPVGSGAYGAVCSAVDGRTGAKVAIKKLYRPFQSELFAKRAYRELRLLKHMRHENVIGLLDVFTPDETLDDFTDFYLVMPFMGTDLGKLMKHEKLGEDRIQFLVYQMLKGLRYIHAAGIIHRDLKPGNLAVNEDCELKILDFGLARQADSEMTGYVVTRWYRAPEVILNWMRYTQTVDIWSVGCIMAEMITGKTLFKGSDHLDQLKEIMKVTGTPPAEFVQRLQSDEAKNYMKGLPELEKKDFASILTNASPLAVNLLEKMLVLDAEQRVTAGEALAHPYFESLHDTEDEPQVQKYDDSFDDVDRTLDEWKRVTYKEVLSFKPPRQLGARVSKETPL
Run description: Inhibition of recombinant p38-gamma
Endpoint name: IC50

The compound listed as CCN1CCN(c2ccc(Nc3cc(N(C)C(=O)Nc4c(Cl)c(OC)cc(OC)c4Cl)ncn3)cc2)CC1.O=P(O)(O)O [INFIGRATINIB PHOSPHATE] shows IC50 equal to > 10 µM

----------
Tgt: UniProtKB P12931
Sequence (P12931 2-536 limits assumed): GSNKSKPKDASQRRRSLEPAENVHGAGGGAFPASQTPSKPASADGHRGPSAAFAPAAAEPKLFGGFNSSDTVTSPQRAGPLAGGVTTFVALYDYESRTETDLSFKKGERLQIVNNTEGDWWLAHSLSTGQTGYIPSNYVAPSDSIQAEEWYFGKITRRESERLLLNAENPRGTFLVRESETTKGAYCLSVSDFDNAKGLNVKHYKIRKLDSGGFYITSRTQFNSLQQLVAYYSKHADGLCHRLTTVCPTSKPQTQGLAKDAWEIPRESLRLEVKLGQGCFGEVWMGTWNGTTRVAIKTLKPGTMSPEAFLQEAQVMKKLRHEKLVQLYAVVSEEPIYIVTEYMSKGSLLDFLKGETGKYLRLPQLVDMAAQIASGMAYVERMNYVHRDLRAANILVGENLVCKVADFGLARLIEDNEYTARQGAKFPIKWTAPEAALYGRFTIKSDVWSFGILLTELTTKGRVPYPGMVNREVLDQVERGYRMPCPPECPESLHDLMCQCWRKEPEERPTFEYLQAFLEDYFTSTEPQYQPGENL
Run description: Inhibition of recombinant SRC
Endpoint name: IC50

Looking up CCN1CCN(c2ccc(Nc3cc(N(C)C(=O)Nc4c(Cl)c(OC)cc(OC)c4Cl)ncn3)cc2)CC1.O=P(O)(O)O [INFIGRATINIB PHOSPHATE] , I found its IC50 recorded as > 10 µM

----------
Tgt: Mitogen-activated protein kinase 14 (Homo sapiens)
Sequence (Q16539 whole entry): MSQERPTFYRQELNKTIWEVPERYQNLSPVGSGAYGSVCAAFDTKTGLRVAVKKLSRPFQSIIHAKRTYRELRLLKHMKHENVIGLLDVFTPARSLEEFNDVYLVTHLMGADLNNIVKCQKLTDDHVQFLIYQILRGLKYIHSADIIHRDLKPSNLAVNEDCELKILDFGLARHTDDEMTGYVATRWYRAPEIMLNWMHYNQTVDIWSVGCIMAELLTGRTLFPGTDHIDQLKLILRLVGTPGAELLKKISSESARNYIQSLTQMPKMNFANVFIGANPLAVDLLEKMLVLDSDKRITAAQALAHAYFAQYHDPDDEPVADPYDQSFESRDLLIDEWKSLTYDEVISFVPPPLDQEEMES
Run description: Inhibition of recombinant p38alpha
Endpoint name: IC50

Summary for this compound, CCN1CCN(c2ccc(Nc3cc(N(C)C(=O)Nc4c(Cl)c(OC)cc(OC)c4Cl)ncn3)cc2)CC1.O=P(O)(O)O [INFIGRATINIB PHOSPHATE] : IC50 is > 10 µM

----------
Tgt: Tyrosine-protein kinase SYK (Homo sapiens)
Run description: Inhibition of recombinant SYK
pIC50: −log10 of the molar value.
Endpoint name: pIC50

Per the records, this molecule ( CCN1CCN(c2ccc(Nc3cc(N(C)C(=O)Nc4c(Cl)c(OC)cc(OC)c4Cl)ncn3)cc2)CC1.O=P(O)(O)O [INFIGRATINIB PHOSPHATE] ) has pIC50 equal to < 5.00

----------
Run description: Volume of distribution at steady state in Wistar rat at 5 mg/kg, iv by LC-MS/MS analysis
Type: ADME, organism-based
Parameters: dose 5 mg/kg, route intravenous
Stated conditions: in vivo, read-out: Vdss
Endpoint name: Vd (L/kg)
Numeric answer only, unit L/kg assumed.

Recorded result, CCN1CCN(c2ccc(Nc3cc(N(C)C(=O)Nc4c(Cl)c(OC)cc(OC)c4Cl)ncn3)cc2)CC1.O=P(O)(O)O [INFIGRATINIB PHOSPHATE] , Vd: 9.6

----------
Tgt: Tyrosine-protein kinase receptor UFO (Homo sapiens)
Run description: Inhibition of recombinant AXL
Endpoint name: IC50

The molecule listed as CCN1CCN(c2ccc(Nc3cc(N(C)C(=O)Nc4c(Cl)c(OC)cc(OC)c4Cl)ncn3)cc2)CC1.O=P(O)(O)O [INFIGRATINIB PHOSPHATE] shows IC50 equal to > 10 µM

----------
Run description: Tmax in tumor of RT112/luc1 cells implanted athymic nude mouse at 20 mg/kg, po by LC/MS/MS analysis
Format: ADME, organism-based, Neoplasm
Set-up: dose 20 mg/kg, route oral
Endpoint name: Tmax (h)
# number only, unit h dropped from output

Form: compound = CCN1CCN(c2ccc(Nc3cc(N(C)C(=O)Nc4c(Cl)c(OC)cc(OC)c4Cl)ncn3)cc2)CC1.O=P(O)(O)O [INFIGRATINIB PHOSPHATE] ; Tmax = 8

----------
Endpoint name: IC50

// compound CCN1CCN(c2ccc(Nc3cc(N(C)C(=O)Nc4c(Cl)c(OC)cc(OC)c4Cl)ncn3)cc2)CC1.O=P(O)(O)O [INFIGRATINIB PHOSPHATE] , assay Phosphatidylinositol 4-kinase beta (Homo sapiens), IC50 value: > 9 µM

----------
Tgt: Serine/threonine-protein kinase mTOR (Homo sapiens, UniProt P42345)
Run description: Inhibition of recombinant mTOR by luminescent kinase assay
pIC50: −log10 of the molar value.
Endpoint name: pIC50

Form: item CCN1CCN(c2ccc(Nc3cc(N(C)C(=O)Nc4c(Cl)c(OC)cc(OC)c4Cl)ncn3)cc2)CC1.O=P(O)(O)O [INFIGRATINIB PHOSPHATE] ; test system Serine/threonine-protein kinase mTOR (Homo sapiens, UniProt P42345); pIC50: < 5.00

----------
Tgt: RAC-alpha serine/threonine-protein kinase (Homo sapiens)
Sequence (P31749 whole entry): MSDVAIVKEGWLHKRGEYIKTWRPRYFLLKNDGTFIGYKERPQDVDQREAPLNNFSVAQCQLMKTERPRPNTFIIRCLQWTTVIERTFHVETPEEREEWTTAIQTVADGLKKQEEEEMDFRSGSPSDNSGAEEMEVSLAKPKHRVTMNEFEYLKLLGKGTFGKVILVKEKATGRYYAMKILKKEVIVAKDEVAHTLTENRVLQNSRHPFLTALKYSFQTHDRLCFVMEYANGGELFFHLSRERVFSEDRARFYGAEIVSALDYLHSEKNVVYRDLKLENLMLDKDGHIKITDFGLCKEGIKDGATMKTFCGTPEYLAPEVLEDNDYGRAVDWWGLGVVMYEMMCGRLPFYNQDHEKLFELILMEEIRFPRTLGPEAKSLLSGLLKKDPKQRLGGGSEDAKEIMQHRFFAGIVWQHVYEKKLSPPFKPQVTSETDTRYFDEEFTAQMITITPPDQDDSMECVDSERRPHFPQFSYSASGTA
Run description: Inhibition of recombinant PKBalpha
pIC50: −log10 of the molar value.
Endpoint name: pIC50

With RAC-alpha serine/threonine-protein kinase (Homo sapiens) as the test system, CCN1CCN(c2ccc(Nc3cc(N(C)C(=O)Nc4c(Cl)c(OC)cc(OC)c4Cl)ncn3)cc2)CC1.O=P(O)(O)O [INFIGRATINIB PHOSPHATE] showed pIC50 of < 5.00

----------
Tgt: UniProt:P35968
Sequence (P35968 whole entry): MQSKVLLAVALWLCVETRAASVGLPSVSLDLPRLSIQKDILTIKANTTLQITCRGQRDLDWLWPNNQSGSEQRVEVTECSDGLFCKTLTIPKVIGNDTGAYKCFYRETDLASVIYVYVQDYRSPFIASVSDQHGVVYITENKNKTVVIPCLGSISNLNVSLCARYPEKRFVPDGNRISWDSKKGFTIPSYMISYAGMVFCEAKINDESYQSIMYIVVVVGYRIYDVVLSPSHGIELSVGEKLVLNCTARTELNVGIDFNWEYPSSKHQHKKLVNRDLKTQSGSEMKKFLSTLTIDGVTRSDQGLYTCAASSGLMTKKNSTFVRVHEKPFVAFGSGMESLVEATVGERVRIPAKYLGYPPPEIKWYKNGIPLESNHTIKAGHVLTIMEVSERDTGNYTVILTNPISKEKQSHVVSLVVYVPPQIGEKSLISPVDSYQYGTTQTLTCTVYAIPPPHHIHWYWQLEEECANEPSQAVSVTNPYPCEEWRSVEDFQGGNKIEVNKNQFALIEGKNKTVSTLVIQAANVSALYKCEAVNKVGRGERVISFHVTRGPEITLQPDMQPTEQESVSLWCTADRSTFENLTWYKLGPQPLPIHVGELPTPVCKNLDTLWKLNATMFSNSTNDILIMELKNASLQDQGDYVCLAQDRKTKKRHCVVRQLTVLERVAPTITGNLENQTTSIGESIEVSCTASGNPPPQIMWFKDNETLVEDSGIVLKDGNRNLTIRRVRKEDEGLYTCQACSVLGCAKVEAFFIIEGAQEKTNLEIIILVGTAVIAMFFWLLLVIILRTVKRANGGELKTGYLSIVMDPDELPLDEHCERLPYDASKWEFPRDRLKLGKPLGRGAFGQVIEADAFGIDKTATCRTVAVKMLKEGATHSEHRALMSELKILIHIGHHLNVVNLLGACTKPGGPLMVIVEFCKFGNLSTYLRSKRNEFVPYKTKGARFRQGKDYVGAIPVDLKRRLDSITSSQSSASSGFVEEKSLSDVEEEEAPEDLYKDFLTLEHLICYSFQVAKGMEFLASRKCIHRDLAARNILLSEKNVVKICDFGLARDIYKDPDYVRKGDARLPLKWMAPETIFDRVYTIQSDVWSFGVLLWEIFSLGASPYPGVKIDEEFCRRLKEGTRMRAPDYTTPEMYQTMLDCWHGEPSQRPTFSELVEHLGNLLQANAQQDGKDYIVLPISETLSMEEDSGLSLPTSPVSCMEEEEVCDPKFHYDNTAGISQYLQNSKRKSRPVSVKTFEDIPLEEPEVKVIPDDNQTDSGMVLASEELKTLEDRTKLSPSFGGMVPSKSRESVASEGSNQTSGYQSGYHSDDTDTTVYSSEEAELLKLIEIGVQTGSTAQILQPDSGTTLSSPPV
Run description: Inhibition of recombinant VEGFR2
Endpoint name: IC50 (nM)
Enter your answer as a number in nM; do not include the unit.

IC50 reading for CCN1CCN(c2ccc(Nc3cc(N(C)C(=O)Nc4c(Cl)c(OC)cc(OC)c4Cl)ncn3)cc2)CC1.O=P(O)(O)O [INFIGRATINIB PHOSPHATE] : 180

----------
Tgt: Focal adhesion kinase 1 (Homo sapiens)
Run description: Inhibition of recombinant FAK
Endpoint name: IC50

Memo: CCN1CCN(c2ccc(Nc3cc(N(C)C(=O)Nc4c(Cl)c(OC)cc(OC)c4Cl)ncn3)cc2)CC1.O=P(O)(O)O [INFIGRATINIB PHOSPHATE] , reported IC50: > 10 µM

----------
Tgt: Receptor tyrosine-protein kinase erbB-4 (Homo sapiens)
Sequence (Q15303 whole entry): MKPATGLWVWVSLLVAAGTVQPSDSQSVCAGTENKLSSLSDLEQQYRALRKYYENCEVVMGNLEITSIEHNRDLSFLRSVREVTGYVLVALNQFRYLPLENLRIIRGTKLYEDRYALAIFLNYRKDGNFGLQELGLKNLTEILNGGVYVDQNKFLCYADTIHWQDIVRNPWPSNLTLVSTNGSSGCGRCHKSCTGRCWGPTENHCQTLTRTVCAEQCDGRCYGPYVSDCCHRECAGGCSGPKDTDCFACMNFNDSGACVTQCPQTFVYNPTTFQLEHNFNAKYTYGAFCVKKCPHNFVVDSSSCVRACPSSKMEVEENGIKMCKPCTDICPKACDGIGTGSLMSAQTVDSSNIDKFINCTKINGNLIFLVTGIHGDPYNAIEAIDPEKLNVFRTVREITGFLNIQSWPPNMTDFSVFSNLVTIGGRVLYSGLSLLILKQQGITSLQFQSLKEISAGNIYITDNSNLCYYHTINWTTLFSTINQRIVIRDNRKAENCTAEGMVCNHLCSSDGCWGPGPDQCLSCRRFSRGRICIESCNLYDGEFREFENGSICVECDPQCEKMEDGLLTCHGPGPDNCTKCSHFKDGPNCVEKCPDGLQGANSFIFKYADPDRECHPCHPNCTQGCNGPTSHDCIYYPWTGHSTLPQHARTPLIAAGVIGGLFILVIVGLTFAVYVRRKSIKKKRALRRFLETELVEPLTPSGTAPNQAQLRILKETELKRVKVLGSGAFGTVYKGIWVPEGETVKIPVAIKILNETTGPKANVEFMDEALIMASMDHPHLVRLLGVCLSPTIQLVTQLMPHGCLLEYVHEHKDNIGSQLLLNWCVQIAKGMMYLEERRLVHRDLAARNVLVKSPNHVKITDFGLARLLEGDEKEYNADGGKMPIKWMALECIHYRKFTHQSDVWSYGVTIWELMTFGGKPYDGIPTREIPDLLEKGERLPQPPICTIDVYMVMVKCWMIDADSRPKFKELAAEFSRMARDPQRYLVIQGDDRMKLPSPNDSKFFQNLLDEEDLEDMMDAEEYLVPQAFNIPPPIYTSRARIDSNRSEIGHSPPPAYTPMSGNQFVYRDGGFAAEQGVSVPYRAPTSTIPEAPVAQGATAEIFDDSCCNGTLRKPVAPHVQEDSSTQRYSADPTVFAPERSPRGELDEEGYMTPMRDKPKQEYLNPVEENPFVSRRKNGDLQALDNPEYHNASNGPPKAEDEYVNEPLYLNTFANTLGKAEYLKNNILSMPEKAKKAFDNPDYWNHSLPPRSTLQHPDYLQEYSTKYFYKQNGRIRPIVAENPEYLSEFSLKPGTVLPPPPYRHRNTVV
Run description: Inhibition of recombinant ERBB4
Endpoint name: IC50

Input CCN1CCN(c2ccc(Nc3cc(N(C)C(=O)Nc4c(Cl)c(OC)cc(OC)c4Cl)ncn3)cc2)CC1.O=P(O)(O)O [INFIGRATINIB PHOSPHATE] . Output IC50: > 10 µM

----------
Run description: Tmax in Wistar rat at 10 mg/kg, po by LC-MS/MS analysis
Assay type: ADME, organism-based
Parameters: dose 10 mg/kg, route oral
Stated conditions: in vivo
Endpoint name: Tmax (h)
Report the figure in h without appending any unit label.

Sample CCN1CCN(c2ccc(Nc3cc(N(C)C(=O)Nc4c(Cl)c(OC)cc(OC)c4Cl)ncn3)cc2)CC1.O=P(O)(O)O [INFIGRATINIB PHOSPHATE] ; Tmax observed: 4

----------
Tgt: Cytochrome P450 3A4 (Homo sapiens, UniProt P08684)
Run description: Inhibition of CYP3A4 using DBF as substrate
Endpoint name: pIC50
API: returns pIC50 as number; meaning -log10 of concentration in mol/L.

In plain terms, "CCN1CCC(c2ccc(Nc3cc(N(C)C(=O)Nc4c(Cl)c(OC)cc(OC)c4Cl)ncn3)cc2)CC1" has a documented pIC50 of 5.22

# pIC50 (compound: "COc1cc(OC)c(Cl)c(NC(=O)N(C)c2cc(Nc3ccc(OCCN4CCCC4)cc3)ncn2)c1Cl" ) is 5.60

----------
Please consider the recorded pIC50 for Cytochrome P450 2C19 (Homo sapiens, UniProt P33261) in what follows.
Schema: pIC50 number; meaning minus log10 of the concentration expressed in molar units.

Sample "COc1cc(OC)c(Cl)c(NC(=O)N(C)c2cc(Nc3ccc(CCCN(C)C)cc3)ncn2)c1Cl" , system: Cytochrome P450 2C19 (Homo sapiens, UniProt P33261). Its pIC50 is 5.44

"COc1cc(OC)c(Cl)c(NC(=O)N(C)c2cc(Nc3cccc(CN4CCN(C)CC4)c3)ncn2)c1Cl" on Cytochrome P450 2C19 (Homo sapiens, UniProt P33261) gives pIC50 = 6.52
